# Test system: OVCAR-3 ovarian
# assay_text: NCI tumour cell line growth inhibition, 48 h
Would you kindly list TGI for each of these molecules?

Recorded results for 6 molecules are shown here.
- molecule: "O=C(O)c1ccccc1NCn1nc(-c2ccccc2O)oc1=S"
  TGI: "> 100 µM"
- molecule: "COc1ccccc1/C=C(\\NC(=O)c1ccccc1)c1nc2ccc(Cl)cc2[nH]1"
  TGI: "49.6 µM"
- molecule: "CC(=O)O[C@H]1CC[C@@H](OC(C)=O)[C@H]2[C@H](O)[C@H](O)[C@@H]1n1c(=O)n(-c3ccccc3)c(=O)n12"
  TGI: "> 100 µM"
- molecule: "COc1ccc(S(=O)(=O)NC(CCC(=O)NC(N)=O)C(=O)NC(N)=O)cc1 (centres undefined)"
  TGI: "> 100 µM"
- molecule: "CCCCCCCCCCCCOCC(COP(=O)(O)OCCN=[N+]=[N-])OC(=O)CCCCCCCCCCC (centres undefined)"
  TGI: "> 100 µM"
- molecule: "COc1cc2c(cc1O)C(Cc1ccc(OCc3ccccc3)c(OCc3ccccc3)c1)N(C(=O)NCCc1ccccc1)CC2 (centres undefined)"
  TGI: "> 100 µM"

Would you mind giving TGI for every molecule in the list below?
1. O=C(Nc1nc2ccc(S(=O)(=O)Nc3ccc(C4(C(F)(F)F)CC4)cc3)cc2[nH]1)c1cnccn1
2. O=[N+]([O-])/C=C/c1cc(Cl)c(/C=C/[N+](=O)[O-])cc1Cl
3. O=C(CCCCN1CCN(CCCCC(=O)Nc2ccccc2C#C/C=C\C#Cc2ccccc2C(F)(F)F)CC1)Nc1ccccc1C#C/C=C\C#Cc1ccccc1C(F)(F)F
4. CC(=O)Nc1cccc(C#Cc2cncnc2Nc2ccc(OCc3cccc(F)c3)c(Cl)c2)c1
5. Cn1cc(-c2ccc3ncc(-c4ccc(CC(=O)Nc5cc(C(C)(C)C)nn5C)cc4)cc3c2)cn1
6. O=c1c2ccc(Cl)cc2oc2c(CSc3ccccc3)cccc12
7. O=C(OCCN=c1c2ccccc2ccc2ccccc12)c1cc([N+](=O)[O-])cc([N+](=O)[O-])c1
8. C[n+]1c2ccccc2n2c3ccccc3c(NCCCn3ccnc3)c(C#N)c21

[reply]
10.1 µM
5.04 µM
21.8 µM
> 25 µM
> 20 µM
> 100 µM
> 100 µM
> 25.2 µM

---

# Test system: SN12C renal
# assay_text: NCI tumour cell line growth inhibition, 48 h
reported_metric: TGI

Recorded results for 2 molecules are shown here.
- molecule: "Cc1cc(-c2ccc(N=Nc3ccc4c(S(=O)(=O)O)cc(S(=O)(=O)O)c(N)c4c3O)c(C)c2)ccc1N=Nc1ccc2c(S(=O)(=O)O)cc(S(=O)(=O)O)c(N)c2c1O"
  TGI: "> 100 µM"
- molecule: "CCC12CCC[C@@]13C=C[C@H](O3)C(C)(C)C2=O (stereo partly drawn)"
  TGI: "> 100 µM"

Turning now to a further molecule:
[ask] Identify measured TGI corresponding to Clc1[nH]nc2ccccc12
[reply] > 100 µM

---

# Tested on: TK-10 renal
# assay_text: NCI tumour cell line growth inhibition, 48 h
reported_metric: TGI

Recorded results for 5 compounds are shown here.
- compound: "CS(=O)(=O)OCCN1CCN(C(=O)c2ccc(Cl)c3c(Nc4ccc(S(=O)(=O)N=C(N)N)cc4)c4ccccc4nc23)CC1"
  result: "> 100 µM"
- compound: "N#CC(C(=O)Nc1ccccc1)C1=C(Cl)C(=O)c2ccccc2C1=O (stereo not drawn)"
  result: "36.7 µM"
- compound: "COc1cccc(-c2cc(=O)c3cc(N4CCN(C)CC4)ccc3[nH]2)c1"
  result: "94.6 µM"
- compound: "CC(C)(C)OC(=O)N[C@H]1CC(=O)c2ccccc2N(CC(=O)O)C1=O"
  result: "> 100 µM"
- compound: "O=C(Nc1ccc(-n2cc(-c3ccncc3)c(-c3ccc(Cl)c(O)c3)n2)cc1)c1cc(C(F)(F)F)cc(C(F)(F)F)c1"
  result: "23 µM"

Would you mind giving TGI for every compound in the list below?
1. CCCCCCCCCC1CC(=O)OC23CCCC(=O)C12O3 (stereo not drawn)
2. CC(C)=CC1C(C(=O)OCc2cc3c(cc2Cl)OCO3)C1(C)C (stereo not drawn)
3. COc1cc2c(c3c1c(=O)c1ccccc1n3C)C=C([N+](=O)[O-])C(C)(C)O2

[reply]
> 100 µM
> 100 µM
> 100 µM

Every entry's value here was drawn from PubChem BioAssay (NCI).
